- measurementTarget: human PAH with the R408W mutation (Homo sapiens, UniProt P00439, R408W)
- Construct: expressed in transfected cells
- Sequence (P00439 1-452 R408W): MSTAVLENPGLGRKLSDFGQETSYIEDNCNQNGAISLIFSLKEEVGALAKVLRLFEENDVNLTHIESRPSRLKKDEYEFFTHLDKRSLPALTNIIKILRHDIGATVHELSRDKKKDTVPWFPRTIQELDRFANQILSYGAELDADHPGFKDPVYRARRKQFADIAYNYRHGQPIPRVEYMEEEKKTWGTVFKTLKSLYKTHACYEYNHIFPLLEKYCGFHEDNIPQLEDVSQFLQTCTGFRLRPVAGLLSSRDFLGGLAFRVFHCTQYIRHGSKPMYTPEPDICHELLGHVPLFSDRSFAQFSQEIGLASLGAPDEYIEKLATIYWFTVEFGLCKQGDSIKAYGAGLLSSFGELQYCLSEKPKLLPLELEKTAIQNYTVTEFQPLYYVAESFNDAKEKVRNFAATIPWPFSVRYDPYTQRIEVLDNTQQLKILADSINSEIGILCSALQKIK
- assayProcedure: Cell Based Phenylalanine Flux Assay
- assayContext: A375 cells expressing human R408W PAH; 24 hrs compound incubation; 13C-Tyrosine by LC-MS; average where tested multiple times; read-out: AC50
Can you tell me AC50 for the items I'm about to list?

1. O=C(c1oc(N2CCOCC2)nc1C(F)(F)F)N1CCCc2[nH]cnc2[C@H]1c1nc2ccccc2s1 :: 1000 to 5000 nM
2. O=C(c1oc(C2(O)CC2)nc1C(F)F)N1CCc2[nH]cnc2[C@H]1c1nc2c(F)cccc2s1 :: < 500 nM
3. O=C(c1cnc(C(F)(F)F)s1)N1CCc2[nH]cnc2[C@@H]1c1nc2ccccc2s1 :: 1000 to 5000 nM

Provide each entry's AC50 from the list below.
1. O=C(c1ccccc1)N1CCc2[nH]cnc2[C@H]1c1nc2ccccc2[nH]1
2. O=C(Cc1nccs1)N1CCc2[nH]cnc2[C@@H]1c1nc2cccc(Br)c2s1
3. Cc1cc(F)ccc1-c1nnc(C(=O)N2CCc3[nH]cnc3[C@@H]2c2nc3ccccc3s2)o1

Resp:
["500 to 1000 nM", "1000 to 5000 nM", "> 5000 nM"]

Provide each entry's AC50 from the list below.
1. Cc1ncoc1C(=O)N1CCCc2[nH]cnc2[C@H]1c1nc2ccccc2s1
2. O=C(c1oc(-c2ccccn2)nc1C(F)(F)F)N1CC2(CC2)c2[nH]cnc2[C@H]1c1nc2ccccc2s1
3. COc1cccc(CCCC(=O)N2CCc3[nH]cnc3[C@H]2c2nc3ccccc3[nH]2)c1
4. O=C(c1cnn2ccccc12)N1CCc2[nH]cnc2[C@H]1c1nc2ccccc2[nH]1

Resp:
1. 1000 to 5000 nM
2. 500 to 1000 nM
3. 1000 to 5000 nM
4. 500 to 1000 nM

// provenance: patent US20250171438A1
